test_description: MLPCN primary screen, SNCA 5' untranslated region (AID 1813);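 further: H4 neuroglioblastoma cells stably carrying SNCA 5'UTR luciferase fusion; 0% = DMSO wells and 100% = positive control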
conditions: alpha-synuclein 5'UTR reporter, inhibitor activity; active compounds read high; tested at 7.5 µM
In all, about 300,000 compounds went through this assay and about 2,500 (0.83%) were called active. This excerpt belongs to a sample that is enriched for actives.
metric_name: inhibition (%)

| smiles_code | experimental_result |
| --- | --- |
| CCCCCCCCCCCCn1ccc(=N)cc1 | 104 |
| c1cc2c(cc1CCNC1CCCCCC1)OCO2 | 2.86 |
| c1cc2c(cc1[C@H]1OC[C@H]3[C@@H]1CO[C@@H]3c1ccc3c(c1)OCO3)OCO2 | 72.8 |

----------
test_description: MLPCN primary screen, SNCA 5' untranslated region (AID 1813);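 further: H4 neuroglioblastoma cells stably carrying SNCA 5'UTR luciferase fusion; 0% = DMSO wells and 100% = positive control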
conditions: alpha-synuclein 5'UTR reporter, inhibitor activity; active compounds read high; tested at 7.5 µM
The campaign covered roughly 300,000 compounds. About 2,500 (0.83%) were called active. The entries come from a sample that favours actives as a whole.
Parameter: inhibition. Scope: all listed entries.

| compound | scale_unit | inhibition |
| --- | --- | --- |
| CCOc1ccc(-c2cc(C)[n+](CCN(CC)CC)c(-c3ccc(OCC)cc3)c2)cc1 | % | 95.2 |
| Cc1c(Oc2cc(NN3CCCCC3)c([N+](=O)[O-])cc2[N+](=O)[O-])cccc1[N+](=O)[O-] | % | 15.3 |
| Cc1nc2ccc(N3CCN(C)CC3)cc2nc1C | % | -72 |
| Cc1cccc(NC(=O)N2CC3CC(C2)c2cccc(=O)n2C3)c1 (stereo unspecified) | % | 13.7 |
| CN(C)c1ccc(/C=C2\CC3C4CC=C5CC(O)CCC5(C)C4CCC3(C)C2=O)cc1 (stereo unspecified) | % | 8.56 |
| Cc1ccc(P(=S)(c2ccc(C)o2)N2CCOCC2)o1 | % | -9.28 |
| CC(C)n1c(=O)c(C=Nc2ccc(Br)cc2)c(O)n(Cc2ccco2)c1=O | % | -1.22 |
| CSc1nc2ccc(C)cc2c(=O)n1-c1cccnc1 | % | -1.34 |
| CCN(N=Nc1nonc1OC)c1nonc1OC | % | -2.32 |
| COc1cccc(-c2nc3ccc(N4CCN(C)CC4)cc3[nH]2)c1 | % | 68.9 |
| CN1CCN(c2cc(N3CCNCC3)ccc2[N+](=O)[O-])CC1 | % | 9.3 |
